viability, T/C values by entry
# System: 786-0 complex spheroids with HUVEC/MSC, growth % test/control
# PROTOCOL NOTES: Anticancer human tumor 786-0 cell line growth inhibition [AhR];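 also: compound exposure lasted seven days before the read-out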
# EXPERIMENTAL CONDITIONS: second compound 10 µM; first compound 0.00316 µM; stronger effect = lower value
MEASURE NAME: viability, T/C

MOLECULE	OBSERVED RESULT
Cn1ncnc1C1c2n[nH]c(=O)c3cc(F)cc(c23)NC1c1ccc(F)cc1 (stereo not drawn) + CC(CO)NC(=O)c1cc(-c2ccc(Cl)cc2)nn(-c2cnn(C)c2)c1=O	110%
Cn1ncnc1C1c2n[nH]c(=O)c3cc(F)cc(c23)NC1c1ccc(F)cc1 (stereo not drawn) + Cc1ccccc1N=Nc1ccc(NC(=O)c2ccnn2C)c(C)c1	90.5%
CC1COCCN1c1cc(-c2ccnn2C)c2ccnc(-c3ccn[nH]3)c2n1 (stereo not drawn) + CC(CO)NC(=O)c1cc(-c2ccc(Cl)cc2)nn(-c2cnn(C)c2)c1=O	116%

###

# Tested on: 786-0 complex spheroids with HUVEC/MSC, growth % test/control
# PROTOCOL NOTES: Anticancer human tumor 786-0 cell line growth inhibition [AhR]; active = viability on the fitted dose curve at most 10% of control; inactive = the rest;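 also: compound exposure lasted seven days before the read-out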
# EXPERIMENTAL CONDITIONS: second compound 3.16 µM; first compound 3.16 µM
# Excerpt: Multicellular complex tumor spheroid response to aryl hydrocarbon receptor antagonists in combination with a variety of drugs and investigational agents in selected tumor cell lines […] Compounds. […] If the clinical Cmax for an agent had not been determined, the highest concentration tested was 10 microM (Table 1). […]
Labels: 1 = active, 0 = inactive

COMPOUND	LABEL
O=C(C=Cc1cccc(S(=O)(=O)Nc2ccccc2)c1)NO + Cc1ccccc1N=Nc1ccc(NC(=O)c2ccnn2C)c(C)c1	0
COc1ccc([C@@H](O)c2cc(-c3ncnc4cc(N5CCOCC5)ccc34)c(F)cc2Cl)nn1 + CC(CO)NC(=O)c1cc(-c2ccc(Cl)cc2)nn(-c2cnn(C)c2)c1=O	0
O=C(c1cc(Cc2n[nH]c(=O)c3ccccc23)ccc1F)N1CCN(C(=O)C2CC2)CC1 + Cc1ccccc1N=Nc1ccc(NC(=O)c2ccnn2C)c(C)c1	0
CC1(C)CCC(CN2CCN(c3ccc(C(=O)NS(=O)(=O)c4ccc(NCC5CCOCC5)c([N+](=O)[O-])c4)c(Oc4cnc5[nH]ccc5c4)c3)CC2)=C(c2ccc(Cl)cc2)C1 + CC(CO)NC(=O)c1cc(-c2ccc(Cl)cc2)nn(-c2cnn(C)c2)c1=O	0
COc1ccc([C@@H](O)c2cc(-c3ncnc4cc(N5CCOCC5)ccc34)c(F)cc2Cl)nn1 + Cc1cncc(-c2nc(NCCc3c[nH]c4ccccc34)c3ncn(C(C)C)c3n2)c1	0
Nc1ccn(C2OC(CO)C(O)C2(F)F)c(=O)n1 (configuration not stated) + Cc1ccccc1N=Nc1ccc(NC(=O)c2ccnn2C)c(C)c1	1
NS(=O)(=O)OCC1CC(n2ccc3c(NC4CCc5ccccc54)ncnc32)CC1O (configuration not stated) + Cc1ccccc1N=Nc1ccc(NC(=O)c2ccnn2C)c(C)c1	1
Nc1ccccc1NC(=O)c1ccc(CNC(=O)OCc2cccnc2)cc1 + CC(CO)NC(=O)c1cc(-c2ccc(Cl)cc2)nn(-c2cnn(C)c2)c1=O	0
CC(C)c1c(-c2ccccc2)nc2c(C#N)c[nH]n2c1=O + Cc1ccccc1N=Nc1ccc(NC(=O)c2ccnn2C)c(C)c1	0
Nc1ccccc1NC(=O)c1ccc(CNC(=O)OCc2cccnc2)cc1 + Cc1cncc(-c2nc(NCCc3c[nH]c4ccccc34)c3ncn(C(C)C)c3n2)c1	0
CC1COCCN1c1cc(C2(S(C)(=N)=O)CC2)nc(-c2ccnc3[nH]ccc23)n1 (configuration not stated) + Cc1cncc(-c2nc(NCCc3c[nH]c4ccccc34)c3ncn(C(C)C)c3n2)c1	0
CC1(C)CCC(CN2CCN(c3ccc(C(=O)NS(=O)(=O)c4ccc(NCC5CCOCC5)c([N+](=O)[O-])c4)c(Oc4cnc5[nH]ccc5c4)c3)CC2)=C(c2ccc(Cl)cc2)C1 + Cc1cncc(-c2nc(NCCc3c[nH]c4ccccc34)c3ncn(C(C)C)c3n2)c1	0

###

# System: 786-0 complex spheroids with HUVEC/MSC, growth % test/control
# PROTOCOL NOTES: Anticancer human tumor 786-0 cell line growth inhibition [AhR];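 also: compound exposure lasted seven days before the read-out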
# EXPERIMENTAL CONDITIONS: second compound 0.1 µM; first compound 0.01 µM; stronger effect = lower value

MOLECULE	RESULT UNITS	viability, T/C
CC1COCCN1c1cc(-c2ccnn2C)c2ccnc(-c3ccn[nH]3)c2n1 (configuration not stated) + Cc1cncc(-c2nc(NCCc3c[nH]c4ccccc34)c3ncn(C(C)C)c3n2)c1	%	114
CC[C@@]1(O)C(=O)OCc2c1cc1n(c2=O)Cc2cc3c(CN(C)C)c(O)ccc3nc2-1 + Cc1cncc(-c2nc(NCCc3c[nH]c4ccccc34)c3ncn(C(C)C)c3n2)c1	%	115
Nc1ncn(C2CC(O)C(CO)O2)c(=O)n1 (configuration not stated) + CC(CO)NC(=O)c1cc(-c2ccc(Cl)cc2)nn(-c2cnn(C)c2)c1=O	%	79.7
CC1COCCN1c1cc(-c2ccnn2C)c2ccnc(-c3ccn[nH]3)c2n1 (configuration not stated) + Cc1ccccc1N=Nc1ccc(NC(=O)c2ccnn2C)c(C)c1	%	108
CC1COCCN1c1cc(-c2ccnn2C)c2ccnc(-c3ccn[nH]3)c2n1 (configuration not stated) + CC(CO)NC(=O)c1cc(-c2ccc(Cl)cc2)nn(-c2cnn(C)c2)c1=O	%	100
Nc1ncn(C2CC(O)C(CO)O2)c(=O)n1 (configuration not stated) + Cc1cncc(-c2nc(NCCc3c[nH]c4ccccc34)c3ncn(C(C)C)c3n2)c1	%	115
Cn1ncnc1C1c2n[nH]c(=O)c3cc(F)cc(c23)NC1c1ccc(F)cc1 (configuration not stated) + CC(CO)NC(=O)c1cc(-c2ccc(Cl)cc2)nn(-c2cnn(C)c2)c1=O	%	99.6
Cn1ncnc1C1c2n[nH]c(=O)c3cc(F)cc(c23)NC1c1ccc(F)cc1 (configuration not stated) + Cc1ccccc1N=Nc1ccc(NC(=O)c2ccnn2C)c(C)c1	%	101
CC[C@@]1(O)C(=O)OCc2c1cc1n(c2=O)Cc2cc3c(CN(C)C)c(O)ccc3nc2-1 + Cc1ccccc1N=Nc1ccc(NC(=O)c2ccnn2C)c(C)c1	%	109
CC[C@@]1(O)C(=O)OCc2c1cc1n(c2=O)Cc2cc3c(CN(C)C)c(O)ccc3nc2-1 + CC(CO)NC(=O)c1cc(-c2ccc(Cl)cc2)nn(-c2cnn(C)c2)c1=O	%	115
Cn1ncnc1C1c2n[nH]c(=O)c3cc(F)cc(c23)NC1c1ccc(F)cc1 (configuration not stated) + Cc1cncc(-c2nc(NCCc3c[nH]c4ccccc34)c3ncn(C(C)C)c3n2)c1	%	117
Nc1ncn(C2CC(O)C(CO)O2)c(=O)n1 (configuration not stated) + Cc1ccccc1N=Nc1ccc(NC(=O)c2ccnn2C)c(C)c1	%	114

###

# Tested on: 786-0 complex spheroids with HUVEC/MSC, growth % test/control
# PROTOCOL NOTES: Anticancer human tumor 786-0 cell line growth inhibition [AhR]; active = viability on the fitted dose curve at most 10% of control; inactive = the rest;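 also: compound exposure lasted seven days before the read-out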
# EXPERIMENTAL CONDITIONS: second compound 1 µM; first compound 0.0316 µM
Labels: active, inactive

MOLECULE	LABEL
Nc1ccccc1NC(=O)c1ccc(CNC(=O)OCc2cccnc2)cc1 + CC(CO)NC(=O)c1cc(-c2ccc(Cl)cc2)nn(-c2cnn(C)c2)c1=O	inactive
Nc1ccn(C2OC(CO)C(O)C2(F)F)c(=O)n1 (stereo not drawn) + CC(CO)NC(=O)c1cc(-c2ccc(Cl)cc2)nn(-c2cnn(C)c2)c1=O	active
CC1(C)CCC(CN2CCN(c3ccc(C(=O)NS(=O)(=O)c4ccc(NCC5CCOCC5)c([N+](=O)[O-])c4)c(Oc4cnc5[nH]ccc5c4)c3)CC2)=C(c2ccc(Cl)cc2)C1 + Cc1cncc(-c2nc(NCCc3c[nH]c4ccccc34)c3ncn(C(C)C)c3n2)c1	inactive

###

pIC50 values by entry
# Tested on: 786-0 complex spheroids with HUVEC/MSC, growth % test/control
# PROTOCOL NOTES: Anticancer human tumor 786-0 cell line growth inhibition [AhR];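 also: compound exposure lasted seven days before the read-out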
# EXPERIMENTAL CONDITIONS: curve of first compound; second compound 3.16 µM
# Description: Multicellular complex tumor spheroid response to aryl hydrocarbon receptor antagonists in combination with a variety of drugs and investigational agents in selected tumor cell lines […] Compounds. […] If the clinical Cmax for an agent had not been determined, the highest concentration tested was 10 microM (Table 1). […]
pIC50: −log10 of the molar value.

MOLECULE	READOUT RELATION	pIC50
CC(C)c1c(-c2ccccc2)nc2c(C#N)c[nH]n2c1=O + CC(CO)NC(=O)c1cc(-c2ccc(Cl)cc2)nn(-c2cnn(C)c2)c1=O	<	5.00
O=C(C=Cn1cnc(-c2cc(C(F)(F)F)cc(C(F)(F)F)c2)n1)NNc1cnccn1 + CC(CO)NC(=O)c1cc(-c2ccc(Cl)cc2)nn(-c2cnn(C)c2)c1=O	=	6.61
CC1COCCN1c1cc(-c2ccnn2C)c2ccnc(-c3ccn[nH]3)c2n1 (centres undefined) + Cc1cncc(-c2nc(NCCc3c[nH]c4ccccc34)c3ncn(C(C)C)c3n2)c1	=	7.30
CC(C)CC(NC(=O)C(Cc1ccccc1)NC(=O)c1cnccn1)B(O)O (centres undefined) + Cc1ccccc1N=Nc1ccc(NC(=O)c2ccnn2C)c(C)c1	=	7.75
NS(=O)(=O)OCC1CC(n2ccc3c(NC4CCc5ccccc54)ncnc32)CC1O (centres undefined) + CC(CO)NC(=O)c1cc(-c2ccc(Cl)cc2)nn(-c2cnn(C)c2)c1=O	=	6.60
COc1cccc2c1C(=O)c1c(O)c3c(c(O)c1C2=O)CC(O)(C(=O)CO)CC3OC1CC(N)C(O)C(C)O1 (centres undefined) + Cc1ccccc1N=Nc1ccc(NC(=O)c2ccnn2C)c(C)c1	=	6.92
CC1COCCN1c1cc(C2(S(C)(=N)=O)CC2)nc(-c2ccnc3[nH]ccc23)n1 (centres undefined) + Cc1ccccc1N=Nc1ccc(NC(=O)c2ccnn2C)c(C)c1	=	5.19
COc1cc(Nc2ncc3c(n2)-c2ccc(Cl)cc2C(c2c(F)cccc2OC)=NC3)ccc1C(=O)O + Cc1ccccc1N=Nc1ccc(NC(=O)c2ccnn2C)c(C)c1	=	5.32
COc1ccc([C@@H](O)c2cc(-c3ncnc4cc(N5CCOCC5)ccc34)c(F)cc2Cl)nn1 + Cc1ccccc1N=Nc1ccc(NC(=O)c2ccnn2C)c(C)c1	<	5.00
CC1COCCN1c1cc(C2(S(C)(=N)=O)CC2)nc(-c2ccnc3[nH]ccc23)n1 (centres undefined) + CC(CO)NC(=O)c1cc(-c2ccc(Cl)cc2)nn(-c2cnn(C)c2)c1=O	=	5.59
CCN(c1cc(-c2ccc(CN3CCOCC3)cc2)cc(C(=O)NCc2c(C)cc(C)[nH]c2=O)c1C)C1CCOCC1 + CC(CO)NC(=O)c1cc(-c2ccc(Cl)cc2)nn(-c2cnn(C)c2)c1=O	<	5.52
CCN(c1cc(-c2ccc(CN3CCOCC3)cc2)cc(C(=O)NCc2c(C)cc(C)[nH]c2=O)c1C)C1CCOCC1 + Cc1cncc(-c2nc(NCCc3c[nH]c4ccccc34)c3ncn(C(C)C)c3n2)c1	<	5.52
COc1ccc([C@@H](O)c2cc(-c3ncnc4cc(N5CCOCC5)ccc34)c(F)cc2Cl)nn1 + Cc1cncc(-c2nc(NCCc3c[nH]c4ccccc34)c3ncn(C(C)C)c3n2)c1	<	5.00
Cn1ncnc1C1c2n[nH]c(=O)c3cc(F)cc(c23)NC1c1ccc(F)cc1 (centres undefined) + Cc1ccccc1N=Nc1ccc(NC(=O)c2ccnn2C)c(C)c1	<	7.00
CC(C)CC(NC(=O)C(Cc1ccccc1)NC(=O)c1cnccn1)B(O)O (centres undefined) + Cc1cncc(-c2nc(NCCc3c[nH]c4ccccc34)c3ncn(C(C)C)c3n2)c1	=	8.07
CC[C@@]1(O)C(=O)OCc2c1cc1n(c2=O)Cc2cc3c(CN(C)C)c(O)ccc3nc2-1 + Cc1cncc(-c2nc(NCCc3c[nH]c4ccccc34)c3ncn(C(C)C)c3n2)c1	=	7.55
CC(C)c1c(-c2ccccc2)nc2c(C#N)c[nH]n2c1=O + Cc1cncc(-c2nc(NCCc3c[nH]c4ccccc34)c3ncn(C(C)C)c3n2)c1	<	5.00
CC[C@@]1(O)C(=O)OCc2c1cc1n(c2=O)Cc2cc3c(CN(C)C)c(O)ccc3nc2-1 + Cc1ccccc1N=Nc1ccc(NC(=O)c2ccnn2C)c(C)c1	=	7.51
O=C(C=Cc1cccc(S(=O)(=O)Nc2ccccc2)c1)NO + Cc1cncc(-c2nc(NCCc3c[nH]c4ccccc34)c3ncn(C(C)C)c3n2)c1	=	5.80
Nc1ccn(C2OC(CO)C(O)C2(F)F)c(=O)n1 (centres undefined) + CC(CO)NC(=O)c1cc(-c2ccc(Cl)cc2)nn(-c2cnn(C)c2)c1=O	>	7.50
Nc1ncn(C2CC(O)C(CO)S2)c(=O)n1 (centres undefined) + CC(CO)NC(=O)c1cc(-c2ccc(Cl)cc2)nn(-c2cnn(C)c2)c1=O	<	6.52
Nc1ccccc1NC(=O)c1ccc(CNC(=O)OCc2cccnc2)cc1 + CC(CO)NC(=O)c1cc(-c2ccc(Cl)cc2)nn(-c2cnn(C)c2)c1=O	=	5.34
O=C(c1cc(Cc2n[nH]c(=O)c3ccccc23)ccc1F)N1CCN(C(=O)C2CC2)CC1 + CC(CO)NC(=O)c1cc(-c2ccc(Cl)cc2)nn(-c2cnn(C)c2)c1=O	<	5.00
NS(=O)(=O)OCC1CC(n2ccc3c(NC4CCc5ccccc54)ncnc32)CC1O (centres undefined) + Cc1ccccc1N=Nc1ccc(NC(=O)c2ccnn2C)c(C)c1	=	6.36
